Taken from paper PMC9482650.

So I've got a bunch of binders here, and I need their pKd values.
# assay_target: MAGI2_6, Q86UL8
# Sequence (Q86UL8 1141-1229): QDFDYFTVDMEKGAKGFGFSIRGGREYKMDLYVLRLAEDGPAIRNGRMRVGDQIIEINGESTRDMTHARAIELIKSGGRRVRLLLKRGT
# experiment_notes: holdup assay
# Set-up: key: below the threshold = too weak to quantify, mostly under pKd 3.1 to 4
# experimental_context: plain residues with an end cap or a label only (N-terminal biotin on a linker: ado-ado)
Give bare numbers.

Before answering, review these 3 worked examples.
>>> print(df.to_string())
                        binder  measurement_kind  value_reported
0   LESTTVGTSV [KARS1, Q15046]               pKd            4.32
1  RDPPAEWTRV [PTPN18, Q99952]               pKd            4.09
2   DTKNYKQTSV [CRIPT, Q9P021]               pKd            3.75

Let us move to another entry and its pKd.
Per the record, TNSRHGETTV [FZD2, Q14332] has pKd of 4.26
